The reported measurements were obtained from patent US12673975B2.

biological target: human integrin αvβ5 (Homo sapiens, UniProt P06756+P18084); assay: Evaluation of integrin binding property (surface plasmon resonance, Biacore 3000, immobilized cyclic peptide); details: surface plasmon resonance, immobilized cyclic peptide, human integrin αvβ5; read-out: Binding activity (integrin binding property, dissociation constant rank)
Sequence (P06756 31-1048): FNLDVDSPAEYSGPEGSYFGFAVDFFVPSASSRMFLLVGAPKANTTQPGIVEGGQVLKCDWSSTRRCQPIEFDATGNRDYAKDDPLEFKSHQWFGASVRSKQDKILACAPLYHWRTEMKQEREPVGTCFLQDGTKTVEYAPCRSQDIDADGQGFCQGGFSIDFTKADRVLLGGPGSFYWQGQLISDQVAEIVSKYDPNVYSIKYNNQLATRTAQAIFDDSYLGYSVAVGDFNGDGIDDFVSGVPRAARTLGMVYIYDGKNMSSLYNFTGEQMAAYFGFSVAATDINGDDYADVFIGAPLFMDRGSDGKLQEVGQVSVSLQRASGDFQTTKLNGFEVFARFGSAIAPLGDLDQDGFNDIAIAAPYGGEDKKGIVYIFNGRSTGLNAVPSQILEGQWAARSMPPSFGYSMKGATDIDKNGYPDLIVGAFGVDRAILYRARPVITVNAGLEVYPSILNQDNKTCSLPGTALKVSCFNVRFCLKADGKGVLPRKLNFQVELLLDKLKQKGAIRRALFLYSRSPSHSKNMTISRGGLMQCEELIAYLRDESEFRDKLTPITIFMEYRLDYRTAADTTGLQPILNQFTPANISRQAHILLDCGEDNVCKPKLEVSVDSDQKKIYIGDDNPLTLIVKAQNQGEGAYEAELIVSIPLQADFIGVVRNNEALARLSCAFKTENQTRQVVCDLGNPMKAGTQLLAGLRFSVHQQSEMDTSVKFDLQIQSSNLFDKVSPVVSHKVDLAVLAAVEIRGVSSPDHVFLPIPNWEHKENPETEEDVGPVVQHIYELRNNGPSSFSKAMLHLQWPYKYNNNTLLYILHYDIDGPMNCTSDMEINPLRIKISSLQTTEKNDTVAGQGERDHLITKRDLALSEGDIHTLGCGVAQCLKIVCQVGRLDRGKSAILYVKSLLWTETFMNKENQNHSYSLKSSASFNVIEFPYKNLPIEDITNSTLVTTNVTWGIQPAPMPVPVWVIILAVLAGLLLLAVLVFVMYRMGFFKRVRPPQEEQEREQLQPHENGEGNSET
Sequence (P18084 24-799): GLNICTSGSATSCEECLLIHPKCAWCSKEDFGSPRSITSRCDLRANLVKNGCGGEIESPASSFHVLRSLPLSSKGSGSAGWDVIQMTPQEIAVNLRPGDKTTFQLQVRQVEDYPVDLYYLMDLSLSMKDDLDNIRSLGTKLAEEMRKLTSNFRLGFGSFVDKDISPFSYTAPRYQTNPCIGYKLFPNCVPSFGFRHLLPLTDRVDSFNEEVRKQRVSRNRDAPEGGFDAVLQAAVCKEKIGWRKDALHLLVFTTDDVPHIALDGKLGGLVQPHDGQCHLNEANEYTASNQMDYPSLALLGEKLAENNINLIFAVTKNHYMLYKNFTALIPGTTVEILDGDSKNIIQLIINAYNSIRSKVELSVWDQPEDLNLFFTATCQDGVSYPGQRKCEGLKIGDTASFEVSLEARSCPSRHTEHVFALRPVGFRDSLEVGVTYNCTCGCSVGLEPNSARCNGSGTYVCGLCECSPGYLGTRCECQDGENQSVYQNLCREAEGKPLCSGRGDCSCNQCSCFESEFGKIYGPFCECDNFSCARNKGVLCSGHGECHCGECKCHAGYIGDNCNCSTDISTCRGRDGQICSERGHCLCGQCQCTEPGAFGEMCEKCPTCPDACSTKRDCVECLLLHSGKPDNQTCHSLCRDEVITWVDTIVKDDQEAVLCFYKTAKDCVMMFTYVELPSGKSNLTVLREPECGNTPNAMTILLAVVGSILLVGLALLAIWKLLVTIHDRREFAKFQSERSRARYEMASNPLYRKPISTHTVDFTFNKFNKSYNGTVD
Description: […]
Starred links: 1 amine or outer side, 2 acyl side, 3 side chain; linkers in the order of their positions; H or OH if unused. Positions of bridges follow the written chain, without caps; N, C: chain ends. Non-standard residues stand in square brackets, D forms with d. Residues, ends and D or L forms follow the SMILES beside them. Dap = NC[C@H](N)C(=O)O; X1 = O=C(C[*:2])[*:1]
RESULT_TYPE: Kd

Request: Item N=C(N)NCCC[C@@H]1NC(=O)[C@H](Cc2ccc(O)cc2)NC(=O)[C@H](CC(N)=O)NC(=O)[C@H](CC(=O)O)NC(=O)CNC(=O)[C@H](CCCNC(=N)N)NC(=O)[C@@H]2CCCN2C(=O)[C@H](CCC(=O)O)NC(=O)[C@@H](NC(=O)[C@H](CCCCN)NC(=O)[C@H](CCCCN)NC(=O)[C@@H](N)CCCCN)CNC(=O)CSC[C@@H](C(=O)O)NC1=O [Cyclic peptide 167, KKK(Dap(acetyl))EPRGDNYR(C), reference compound] (H-KKK[Dap]EPRGDNYRC-OH; linker 4-13 via X1) has what recorded Kd?
Response: 0.05 to 0.1 µM
